- target_of_assay: 5HT1D receptors (Bos taurus, UniProt F1MGM3)
- Sequence (F1MGM3 1-403): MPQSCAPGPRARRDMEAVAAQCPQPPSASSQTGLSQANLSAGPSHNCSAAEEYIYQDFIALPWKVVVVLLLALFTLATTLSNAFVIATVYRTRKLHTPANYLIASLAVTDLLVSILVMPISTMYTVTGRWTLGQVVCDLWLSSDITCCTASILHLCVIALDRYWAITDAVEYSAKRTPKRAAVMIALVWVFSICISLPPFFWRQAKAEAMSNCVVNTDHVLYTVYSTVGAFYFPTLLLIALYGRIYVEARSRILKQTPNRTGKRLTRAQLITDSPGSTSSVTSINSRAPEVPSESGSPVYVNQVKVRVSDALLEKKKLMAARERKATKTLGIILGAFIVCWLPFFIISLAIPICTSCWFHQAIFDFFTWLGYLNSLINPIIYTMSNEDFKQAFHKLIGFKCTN
endpoint: IC50

I am curious: what IC50 value has been reported for CNS(=O)(=O)Cc1ccc2[nH]cc(CCN(C)C)c2c1 [sumatriptan] ?
~100 nM

Origin of values: patent US5252749A
